The origin of these recorded values is the RNAGym collection of RNA variant scans (doi:10.1073/pnas.2313332121).

# polymerase ribozyme fitness (log ratio) values compiled below
B1: TPR 5TU (parent)
chain: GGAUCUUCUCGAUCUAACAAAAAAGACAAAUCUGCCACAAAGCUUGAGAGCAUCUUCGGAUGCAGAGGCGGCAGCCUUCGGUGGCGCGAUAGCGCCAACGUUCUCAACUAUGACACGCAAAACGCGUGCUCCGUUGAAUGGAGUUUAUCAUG

Variants of: B1
procedure_text: polymerase ribozyme fitness, log enrichment relative to wild type (log ratio); higher = more active; in vitro selection for triplet polymerase activity
This sample holds only a part of the variants without activity.
Simply state the number, no unit and no words.

The following variants have reported results that may help.
mutant_id: C54U G124C
polymerase ribozyme fitness (log ratio): -0.768
//
mutant_id: U45G C87U
polymerase ribozyme fitness (log ratio): -1.32
//
mutant_id: A19U A24C C35U C57U A66C G86U
polymerase ribozyme fitness (log ratio): -4.08
//
mutant_id: C32A C69G A98U
polymerase ribozyme fitness (log ratio): -1.51
//
mutant_id: A28G G83C
polymerase ribozyme fitness (log ratio): -4.1

Lab note: next variant to report on.
Query: polymerase ribozyme fitness (log ratio); subject: U15G C18G A40U
-1.5
